Tested on: MOLT-4 leukemia
method.summary: NCI-60 one-dose screen, 48 h
cond: 10 µM unless noted
Compounds without any hit were thinned out: in the full panel of roughly 83,000, 20% have a hit. The source made the active and inactive calls. The calls were made as follows: active = growth percent below 10; inactive = the rest.
Classes used: true (1) (active), false (0) (inactive)

| structure.smiles | category.label |
| --- | --- |
| ClC1=C(Cl)C(Cl)(C2(Cl)C(Cl)=C(Cl)C(Cl)=C2Cl)C(Cl)=C1Cl | true (1) |
| O=C(O)CNC(=O)C(Cl)(Cl)Cl | false (0) |
| COc1ccc(C/C(C)=C(\c2ccc(OCCN3CCOCC3)cc2)c2ccc(OC(=O)Cc3ccccc3)cc2)cc1 | true (1) |
| O=C(N/N=C\c1ccc(N(CCCl)CCCl)cc1)c1cccc([N+](=O)[O-])c1 | false (0) |
| C[Se]C(=O)c1ccccc1OC(C)=O | false (0) |
